Let's look at some molecules and their measured inhibition at 0.37 µM.
# System under test: HIV-1 protease (Human immunodeficiency virus type 1 group M subtype B)
# Construct: The protease (or proteinase), consisting of only 99 amino acids, is among the smallest enzymes known
# Experiment notes: In vitro HIV protease inhibitory assay (HIV Protease FITC Assay)
# Type: biochemical
# Recorded conditions: HIV-1 Dose 0.370 uM; read-out: HIV-1 Protease % Inhib
Metric: inhibition at 0.37 µM (%)

>  <Molecule>
CCC(Cc1ccccc1)c1cc(O)c(C(c2cccc(NS(=O)(=O)CC)c2)C2CC2)c(=O)o1 (stereo not shown)

>  <Comparison symbol>
=

>  <Endpoint result>
47

$$$$
>  <Molecule>
CCCC1(Cc2ccccc2)CC(O)=C(C(CCc2ccccc2)c2ccccc2)C(=O)O1 (stereo not shown)

>  <Comparison symbol>
=

>  <Endpoint result>
19.7

$$$$
>  <Molecule>
CCC(CCC(F)(F)F)c1cc(O)c(C(c2ccccc2)C2CC2)c(=O)o1 (stereo not shown)

>  <Comparison symbol>
=

>  <Endpoint result>
24.5

$$$$
>  <Molecule>
Cc1ccc(C(O)Cc2cc(O)c(C(c3ccccc3)C3CC3)c(=O)o2)cc1 (stereo not shown)

>  <Comparison symbol>
<

>  <Endpoint result>
10

$$$$
>  <Molecule>
O=c1oc(C(CC2CC2)CC2CCCOC2)cc(O)c1C(c1ccccc1)C1CC1 (stereo not shown)

>  <Comparison symbol>
=

>  <Endpoint result>
36.2

$$$$
>  <Molecule>
CCC(Cc1ccc(OC)cc1)c1cc(O)c(C(c2ccccc2)C2CC2)c(=O)o1 (stereo not shown)

>  <Comparison symbol>
=

>  <Endpoint result>
30.8

$$$$
>  <Molecule>
CCC(Cc1ccccc1)c1cc(O)c(C(c2cccc(NS(=O)(=O)c3ccc(Br)cc3)c2)C2CC2)c(=O)o1 (stereo not shown)

>  <Comparison symbol>
=

>  <Endpoint result>
64.5

$$$$

src = patent EP1203770A1
